tested on: IL-12 mRNA; assay: IL-12 mRNA in LPS-activated primary murine macrophages; type: cell-based, mouse; details: 300 nM, −IFN, LPS; average of 3 treatments
In the oligonucleotide strings, read from the 5' end, every base follows the letter of its sugar. An asterisk marks phosphorothioate; unmarked linkages are phosphodiester. Other units and linkages are bracketed, terminal groups are in braces. A string of capitals states the bases alone. e = 2'-O-(2-methoxyethyl) (MOE); [5mC] = 5-methylcytosine; d = 2'-deoxy (DNA)
Rule: IL-12 mRNA expression, % UTC under 80 % UTC gives 0, otherwise 1.

A selection of reference data follows.
1. 129690 (antisense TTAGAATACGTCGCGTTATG; sugars from the 5' end e5 d10 e5, all phosphorothioate, methylation of C not given here) [compound 129690] :: 1
2. 327921 (antisense e[5mC]*eT*eT*e[5mC]*e[5mC]*eA*eG*eT*e[5mC]*eG*eG*eG*eG*eA*eT*eG*eT*eT*eT*eA*e[5mC]*eA) [compound 327921] :: 0
3. 229927 (antisense e[5mC]*e[5mC]*eA*e[5mC]*eA*dT*dT*dG*dA*dG*dT*dT*dT*d[5mC]*dT*eT*eT*eA*eA*eG) [compound 229927] :: 0

## Task Identify whether the reported IL-12 mRNA expression, % UTC of the following substance is 80 % UTC or greater: 327941 (antisense eA*eA*e[5mC]*e[5mC]*e[5mC]*eA*e[5mC]*e[5mC]*eG*eA*e[5mC]*eA*eG*e[5mC]*eA*eA*eT*eG*eA*eA*eT*eG*eT*eT) [compound 327941]
## Result 0

## Task IL-12 mRNA expression, % UTC >= 80 % UTC for 342683 (antisense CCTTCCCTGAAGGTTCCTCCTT; scrambled control, further chemistry not given here) [compound 342683] ?
## Result 1
